- Tested On: full-length P. pyralis luciferase (Photinus pyralis, UniProt P08659, K549A/L550V/N119G/N50D/S548I)
- Sequence (P08659 whole entry N50D/N119G/S548I/K549A/L550V, looked up): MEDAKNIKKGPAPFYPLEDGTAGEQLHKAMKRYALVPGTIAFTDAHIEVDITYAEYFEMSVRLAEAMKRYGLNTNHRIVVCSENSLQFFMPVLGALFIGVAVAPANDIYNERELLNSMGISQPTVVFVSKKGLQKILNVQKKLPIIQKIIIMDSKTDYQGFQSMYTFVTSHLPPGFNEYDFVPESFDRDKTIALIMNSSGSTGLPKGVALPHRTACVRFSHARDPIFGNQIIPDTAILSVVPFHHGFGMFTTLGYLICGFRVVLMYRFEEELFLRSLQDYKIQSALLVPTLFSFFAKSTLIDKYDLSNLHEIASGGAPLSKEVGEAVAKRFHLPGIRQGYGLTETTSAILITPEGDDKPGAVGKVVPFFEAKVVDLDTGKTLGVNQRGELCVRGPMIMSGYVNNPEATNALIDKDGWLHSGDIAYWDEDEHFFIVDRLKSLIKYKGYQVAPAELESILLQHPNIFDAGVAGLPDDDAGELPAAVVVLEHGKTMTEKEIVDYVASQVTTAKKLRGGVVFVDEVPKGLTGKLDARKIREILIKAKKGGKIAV
- Type: cell-based
- Test Context: CC_NCI screening; full-length luciferase counter-screen luminescence; normalized to on-plate 0.3% DMSO controls
Response field label takes fulfilled when Luciferase Assay % Lum is strictly below 90% and not fulfilled in all other cases.

Use the examples below as a reference point.
>>> category_label("CNCc1ccc(-c2[nH]c3cc(F)cc4c3c2CCNC4=O)cc1")
"fulfilled"
>>> category_label("O=C(NOCC1CC1)c1ccc(F)c(F)c1Nc1ccc(I)cc1Cl [CI 1040, reference compound]")
"not fulfilled"
>>> category_label("C[C@]12CC[C@H](O)CC1=CC[C@@H]1[C@@H]2CC[C@]2(C)C(c3cccnc3)=CC[C@@H]12")
"fulfilled"

stdin: API: query returns whether the compound falls strictly under 90% in Luciferase Assay % Lum. Query: Cc1cn(-c2cc(NC(=O)c3ccc(C)c(Nc4nccc(-c5cccnc5)n4)c3)cc(C(F)(F)F)c2)cn1 [NILOTINIB]
stdout: not fulfilled

stdin: Moving on to Cn1c(=O)n(-c2ccc(C(C)(C)C#N)cc2)c2c3cc(-c4cnc5ccccc5c4)ccc3ncc21
stdout: not fulfilled

stdin: Moving on to CCCS(=O)(=O)Nc1ccc(F)c(C(=O)c2c[nH]c3ncc(-c4ccc(Cl)cc4)cc23)c1F [PLX4032]
stdout: fulfilled
